Test system: human rhinovirus serotypes, panel B
Assay: MIC50/MIC80 over panel B of 10 human rhinovirus serotypes (HeLa cell CPE)
Format: cell-based
Details: Human rhinovirus sp., 72 h
Property Measured: MIC50

Consider the worked cases shown below.
1. Cc1cc(CCCOc2c(C)cc(-c3noc(C(F)(F)F)n3)cc2Cl)on1 [Example 63d]: 0.304 µg/mL
2. Cc1cc(-c2noc(C(F)(F)F)n2)cc(C)c1OCCCc1onc(C)c1Br: 99 µg/mL
3. Cc1cc(CCCOc2c(C)cc(-c3noc(C(F)(F)F)n3)cc2F)on1 [Example 60h]: 0.328 µg/mL
4. Cc1cc(CCCOc2c(F)cc(-c3noc(C(F)(F)F)n3)cc2I)on1 [Example 60e]: 99 µg/mL

Please examine the following record next.
# get_value(readout= MIC50, system= human rhinovirus serotypes, panel B) for Cc1cc(CCCOc2c(C)cc(-c3noc(C(F)(F)Cl)n3)cc2C)on1 [Example 54a] 49.6 µg/mL

###

Test system: human rhinovirus (HRV) serotypes, panel T
Test: MIC50/MIC80 over panel T of fifteen human rhinovirus serotypes (HeLa cell CPE)
Type: cell-based
Conditions: minimum concentration required to inhibit 80% of the tested serotypes
Property Measured: MIC80 (µg/mL)
Report the figure in µg/mL without appending any unit label.

Quick one: MIC80 of CCOC(=O)c1nc(-c2cc(C)c(OCCCc3cc(C)no3)c(C)c2)no1 ? 99

Quick one: MIC80 of Cc1cc(CCCOc2c(C)cc(-c3nc(C4CC4)no3)cc2C)on1 [Example 45l] ? 0.153

Quick one: MIC80 of CC(=O)OCc1nc(-c2cc(C)c(OCCCc3cc(C)no3)c(C)c2)no1 ? 0.141

Quick one: MIC80 of Cc1cc(CCCCCOc2c(C)cc(-c3noc(C(F)(F)F)n3)cc2C)on1 [Example 30c] ? 0.225

Quick one: MIC80 of Cc1cc(CCCOc2c(Cl)cc(-c3noc(C(F)(F)F)n3)cc2C#N)on1 [Example 61e] ? 0.3355

Quick one: MIC80 of Cc1cc(CCCOc2c(C)cc(-c3noc(C(F)F)n3)cc2C)on1 ? 0.022

Quick one: MIC80 of Cc1cc(CCCOc2c(C)cc(-c3noc(CCl)n3)cc2C)on1 ? 0.141
